- assay.target: Scavenger receptor class B member 1 (Mus musculus) (UniProt Q61009)
- Sequence (Q61009 whole entry, looked up): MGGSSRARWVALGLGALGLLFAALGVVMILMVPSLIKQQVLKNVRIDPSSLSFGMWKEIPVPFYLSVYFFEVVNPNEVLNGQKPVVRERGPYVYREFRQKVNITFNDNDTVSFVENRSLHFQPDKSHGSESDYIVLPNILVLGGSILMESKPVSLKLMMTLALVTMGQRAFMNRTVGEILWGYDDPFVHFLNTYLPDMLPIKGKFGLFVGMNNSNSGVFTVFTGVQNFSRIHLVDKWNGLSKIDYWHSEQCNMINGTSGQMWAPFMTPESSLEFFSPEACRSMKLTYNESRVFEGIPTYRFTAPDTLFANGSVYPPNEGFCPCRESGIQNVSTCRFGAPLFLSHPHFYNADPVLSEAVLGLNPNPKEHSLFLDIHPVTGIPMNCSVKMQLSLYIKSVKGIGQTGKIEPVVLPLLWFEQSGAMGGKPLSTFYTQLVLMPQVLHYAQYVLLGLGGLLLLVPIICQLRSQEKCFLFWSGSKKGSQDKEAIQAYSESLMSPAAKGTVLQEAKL
- assay: inhibition of HDL lipid transfer via mSR-BI – ldlA[mSR-BI] CHO cells, powder samples, set 5, dose response (AID 588754)
- measurement.parameters: DiI-HDL uptake fluorescence, 3 h
readout.label: AC50

See these solved cases before continuing.
CCC(=O)N1CC(C)(C)c2cc(-c3csc(NC(=O)c4cc(OC)cc(OC)c4)n3)ccc21 ... 10.3 nM
Cc1ccc2oc(-c3cccc(NC(=O)c4cc(-n5cnnc5)ccc4Cl)c3)nc2c1 ... 3620 nM
COc1ccc(-c2cc(CC(=O)N(C3CCCCC3)C(C)C(=O)NC3CCCC3)no2)cc1OC (stereo not given) ... 29.4 nM

Ask: Could you share what AC50 was measured for COc1cc(OC)cc(C(=O)Nc2nc(-c3ccc4c(c3)CCN4C(C)=O)cs2)c1 , tested on Scavenger receptor class B member 1 (Mus musculus) (UniProt Q61009)?
Result: 207 nM

Ask: Could you share what AC50 was measured for CC(=O)N1CCc2cc(-c3nc(NC(=O)c4cccc(OC(F)(F)F)c4)sc3C)ccc21 , tested on Scavenger receptor class B member 1 (Mus musculus) (UniProt Q61009)?
Result: 26 nM

----------
- assay.target: Scavenger receptor class B member 1 (Mus musculus)
- assay: inhibition of HDL lipid transfer via mSR-BI – ldlA[mSR-BI] CHO cells, powder samples, set 5, dose response (AID 588754)
- measurement.parameters: DiI-HDL uptake fluorescence, 3 h
readout.label: AC50

See these solved cases before continuing.
CCC(=O)N1CCc2cc(-c3csc(NC(=O)c4cc(OC)cc(OC)c4)n3)ccc21 ... 42.6 nM
COc1ccc(-c2nnn(CC(=O)N(CC(=O)NC3CCCC3)C3CCCCC3)n2)cc1OC ... 36.5 nM
CCC(=O)N1CCc2cc(-c3csc(NC(=O)c4cc5ccccc5o4)n3)ccc21 ... 256 nM

Ask: Entry CCC(=O)n1ccc2cc(-c3csc(NC(=O)c4cc(OC)cc(OC)c4)n3)ccc21 has what AC50?
Result: 89.3 nM

Ask: Entry CCCCCCC1CCC/C1=N\NC(N)=S (stereo not given) has what AC50?
Result: 16.6 nM

----------
- assay.target: Scavenger receptor class B member 1 (Mus musculus) (UniProt Q61009)
- assay: inhibition of HDL lipid transfer via mSR-BI – ldlA[mSR-BI] CHO cells, powder samples, set 5, dose response (AID 588754)
- measurement.parameters: DiI-HDL uptake fluorescence, 3 h
Examples of compounds with documented AC50 follow.

See these solved cases before continuing.
CCC(=O)N1CC(C)(C)c2cc(-c3csc(NC(=O)c4ccco4)n3)ccc21 ... 0.0203 µM
CCC(=O)N1CCc2cc(-c3csc(NC(=O)c4cccc(OC)c4)n3)ccc21 ... 0.035 µM
COCC(=O)N1CCc2cc(-c3csc(NC(=O)c4cc(OC)cc(OC)c4)n3)ccc21 ... 0.00281 µM
C[C@@H](C(=O)NC1CCCC1)N(C(=O)Cn1nnc(-c2ccc3c(c2)OCO3)n1)C1CCCCC1 ... 2.27 µM
COC(=O)N1CCc2cc(-c3csc(NC(=O)c4cc(OC)cc(OC)c4)n3)ccc21 ... 0.039 µM

Ask: Entry COc1ccc(-c2nnn(CC(=O)N(C3CCCCC3)C(C)C(=O)NC3CCCC3)n2)cc1OC (stereo unspecified) has what AC50?
Result: 0.0652 µM

Ask: Entry CCC(=O)N1CCc2cc(-c3csc(NC(=O)c4cc(OC)c(OC)c(OC)c4)n3)ccc21 has what AC50?
Result: 0.00276 µM
